# key: entry, value: TGI
- System: SNB-75 CNS
- METHOD SUMMARY: NCI tumour cell line growth inhibition, 48 h

These solved cases illustrate the format of a correct answer.
Which TGI is listed for COC(=O)C1=C(O)C(O)=C(C(=O)OC)CC1 ?
> 100 µM

Which TGI is reported for this compound? Nc1nc2nc3c(nc2c(=O)[nH]1)CN(c1ccc(C(=O)O)cc1)C3=O
> 100 µM

// query TGI value for entry CN(C)N=Nc1ccc([N+](=O)[O-])cc1C(N)=O
> 100 µM

Tell me the measured TGI of CC1CN=C(Nc2cccc(C(F)(F)F)c2)S1 (stereo unspecified) , please.
> 100 µM

Dear colleague, I am looking for the recorded TGI of the following compound: O=c1c2ccccc2oc2c1ccc1ncccc12
95.5 µM

Others:
Fill blank: measured TGI of the compound CC1(C)O[C@H](C(=O)O)[C@@H](C(=O)O)O1 is ____.
> 100 µM
